Target: HIV-1 protease (Human immunodeficiency virus type 1 group M subtype B)
Assay: Inhibition constants against HIV-1 protease (method of Pennington et al.)
Assay type: biochemical
Conditions: HIV-1 protease; read-out: Ki value
Property: Ki (nM)
Field: numeric (nM). Do not append units.

| Compound Smiles | Ki [nM] |
| --- | --- |
| Cc1nc(C)c(S(=O)(=O)N(CC(C)C)C[C@@H](O)[C@H](Cc2ccccc2)NC(=O)OC(C)(C)C)s1 | 154 |
| O=C(N[C@@H](Cc1ccccc1)[C@H](O)CN(CC1CCCC1)S(=O)(=O)c1ccc(Cl)c(Cl)c1)O[C@H]1CCOC1 | 0.1 |
| CCOC(=O)N[C@@H](Cc1ccccc1)[C@H](O)CN(CC(C)C)S(=O)(=O)c1ccc(NC(C)=O)cc1 | 11 |
| CC(=O)Nc1ccc(S(=O)(=O)N(CC(C)C)C[C@@H](O)[C@H](Cc2ccccc2)NC(=O)C(=O)NC(C)(C)C)cc1 | 220 |
| O=C(N[C@@H](Cc1ccccc1)[C@H](O)CN(CC1CCCC1)S(=O)(=O)c1ccccc1)O[C@H]1CCOC1 | 0.2 |

GET /values?readout=Ki&system=HIV-1 protease (Human immunodeficiency virus type 1 group M subtype B)&item= `C=C(COC)COC(=O)N[C@@H](Cc1ccccc1)[C@H](O)CN(CC1CCCC1)S(=O)(=O)c1ccc(OC)cc1` 0.5

Notebook entry, HIV-1 protease (Human immunodeficiency virus type 1 group M subtype B) assay: Ki of `CCOC(=O)N[C@@H](Cc1ccccc1)[C@H](O)CN(CC(C)C)S(=O)(=O)c1ccc(F)cc1` = ? 2

* * *

Target: HIV-1 protease (Human immunodeficiency virus type 1 group M subtype B, UniProt P04585)
Test: Inhibition constants against HIV-1 protease (method of Pennington et al.)
Type: biochemical
Details: HIV-1 protease; read-out: Ki value
Property: log10(Ki) (log10 of the value in µM)
In our notation, the value equals log10 of Ki in µM.

As a guide, the following entries are already answered.
| Compound | log10(Ki) |
| --- | --- |
| CC(C)CN(C[C@@H](O)[C@H](Cc1ccccc1)NC(=O)OC(C)(C)C)S(=O)(=O)c1ccccc1F [Compound 47] | -2.40 |
| CC(=O)Nc1ccc(S(=O)(=O)N(Cc2ccco2)C[C@@H](O)[C@H](Cc2ccccc2)NC(=O)O[C@H]2CCOC2)cc1 [Compound 137] | -1.59 |
| C=CCCOC(=O)N[C@@H](Cc1ccccc1)[C@H](O)CN(CC(C)C)S(=O)(=O)c1ccc(NC(C)=O)cc1 [Compound 36] | -1.72 |
| Cc1ccc(S(=O)(=O)N(CC(C)C)C[C@@H](O)[C@H](Cc2ccccc2)NC(=O)O[C@H]2CCOC2)cc1 [Compound 165] | -3.40 |
| COc1ccc(S(=O)(=O)N(C[C@@H](O)[C@H](Cc2ccccc2)NC(=O)O[C@H]2CCOC2)CN2CCCCC2)cc1 [Compound 1013] | 0.18 |
| COC(=O)N[C@@H](Cc1ccccc1)[C@H](O)CN(CC(C)C)S(=O)(=O)c1ccc(Cl)c(Cl)c1 [Compound 103] | -2.35 |

Record request: log10(Ki) value, item CC(C)CN(C[C@@H](O)[C@H](Cc1ccccc1)NC(=O)O[C@H]1CCOC1)S(=O)(=O)c1cccc2nonc12 [Compound 60] -2.40

# get_value(readout='log10(Ki)', item= CC(=O)Nc1ccc(S(=O)(=O)N(CC(C)C)C[C@@H](O)[C@H](Cc2ccccc2)NC(=O)O[C@H]2CCOC2)cc1Cl [Compound 53] ) -1.57

Param item = CC(=O)Nc1ccc(S(=O)(=O)N(CC(C)C)C[C@@H](O)[C@H](Cc2ccccc2)NC(=O)NCc2ccccc2)cc1 [Compound 33] ; retrieve measured log10(Ki). -1.10

Given the entry C=CCOC(=O)N[C@@H](Cc1ccccc1)[C@H](O)CN(CC(C)C)S(=O)(=O)c1ccc(OC)cc1 [Compound 154] , report its measured log10(Ki). -3.30

Return reported log10(Ki); argument: COCCOC(=O)N[C@@H](Cc1ccccc1)[C@H](O)CN(CC(C)C)S(=O)(=O)c1ccc(NC(C)=O)cc1 [Compound 34] -1.77

Can you share its log10(Ki)? I mean this compound: CC(=O)Nc1ccc(S(=O)(=O)N(CC(C)C)C[C@@H](O)[C@H](Cc2ccccc2)NC(=O)OCC(C)C)cc1 [Compound 28] -1.77

Which log10(Ki) is reported for this compound? COc1ccc(S(=O)(=O)N(C)C[C@@H](O)[C@H](Cc2ccccc2)NC(=O)O[C@H]2CCOC2)cc1 [Compound 1005] -0.60

Look at this compound and give its reported log10(Ki). O=C(N[C@@H](Cc1ccccc1)[C@H](O)CN(CC1CCCC1)S(=O)(=O)c1ccc(F)cc1)O[C@H]1CCOC1 [Compound 182] -3.70
